Measured mortality at 50 µg/cm2, listed per entry.
Test system: Beet Armyworm (Spodoptera exigua)
assay comment: Insecticidal diet-surface test for beet armyworm
Type: in vivo
study conditions: 120 h, second-instar larvae on treated diet, 50 μg/cm^2 on diet surface, 5 days after treatment, 8 insects per treatment, read-out: LAPHEG AVG % Mortality (50 μg/cm^2)
Experimental: The compounds identified in Table 1 were tested against beet armyworm and corn earworm as follows: Insecticidal Test for Corn Earworm (Helicoverpa zea) and Beet Armyworm (Spodoptera exigua). To prepare test solution, the test compound was formulated at 2000 ppm solution as 4 mg/2 mL of 9 acetone:1 tap water. […] The number of dead insects of 8 per species per treatment was then determined and the results are given in Table 2 as a percent control at a dose of […].
measured parameter: mortality at 50 µg/cm2 (%)

>>> recorded_number("CN(C(=O)Nc1nc(OCC(F)(F)C(F)F)cc(OCC(F)(F)C(F)F)n1)c1ccc(C(F)(F)F)cc1 [Compound 177]")
100
>>> recorded_number("CCOCN(C(=O)N(COCc1ccccc1)c1nc(OCC(F)(F)F)cc(OCC(F)(F)F)n1)c1ccc(Br)cc1 [Compound 67]")
100
>>> recorded_number("CN(C(=O)Nc1nc(OCC(F)(F)F)cc(OCC(F)(F)F)n1)c1ccc(I)cc1 [Compound 81]")
100
